- System: Calu-3
- TEST_PROTOCOL: drug sensitivity score (DSS) for viability; higher = more toxic; extreme values may be limits of the assay
- ASSAY_CONTEXT: 72 h
READOUT_LABEL: drug sensitivity score
Lab note: write the figure by itself, no unit.

COMPOUND: Cc1ccc(-c2ncc(Cl)cc2-c2ccc(S(C)(=O)=O)cc2)cn1
TARGET: Calu-3
drug sensitivity score: 0

query: Specify measured drug sensitivity score for CC(C)(C)c1cc(NC(=O)Nc2ccc(-c3cn4c(n3)sc3cc(OCCN5CCOCC5)ccc34)cc2)no1 .
result: 0

query: Respond only with drug sensitivity score recorded for N[C@@H](C(=O)O)c1nn[nH]n1 (racemic) [tetrazol-5-yl-glycine-(RS)]
result: 0.1

query: Could you please provide reported drug sensitivity score for COCCOCCOc1ccc(C2=N[C@@](C)(C(=O)O)CS2)c(O)c1 ? Thanks!
result: 0

* * *

- Test system: Vero E6
- TEST_PROTOCOL: relative viability EC50 (midpoint between 100% and the lowest measured viability); higher = less toxic
- ASSAY_CONTEXT: 72 h
Listing of entries alongside the reported relative viability EC50.

Previously resolved entries follow.
CHEMICAL_STRUCTURE: N[C@@H](CCNCc1ccc(Cl)cc1)C(=O)N1CCCCC1
relative viability EC50: > 10 µM
--
CHEMICAL_STRUCTURE: Cc1cn([C@@H]2C[C@@H](O)[C@H](CO)O2)c(=O)[nH]c1=O
relative viability EC50: > 10 µM
--
CHEMICAL_STRUCTURE: O=C(CCCCCCCn1cc(-c2cccnc2)nn1)Nc1ccccc1-c1ccccc1
relative viability EC50: 0.0395 µM
--
CHEMICAL_STRUCTURE: C[N+](C)(C)CCCCCNCC12CC3CC(CC(C3)C1)C2
relative viability EC50: > 10 µM

Next, consider the following compound.
query: Enter recorded relative viability EC50 with Vero E6 for CCOC(=O)c1ncn2c1CN(C)C(=O)c1cc(F)ccc1-2 here.
result: > 10 µM

* * *

Measured cell viability accompanies every entry in the list below.
- Test system: Caco-2
- TEST_PROTOCOL: cell viability relative to DMSO; higher = less toxic
- ASSAY_CONTEXT: 72 h; 1 nM
Return type: number; implicit unit %.

Guide cases for cell viability, answers given:
COMPOUND: CCCC[C@H](NC(C)=O)C(=O)N[C@H]1CC(=O)NCCCC[C@@H](C(=O)O)NC(=O)[C@H](Cc2c[nH]c3ccccc23)NC(=O)[C@H](CCCNC(=N)N)NC(=O)[C@@H](Cc2ccccc2)NC(=O)[C@H](Cc2c[nH]cn2)NC1=O [bremelanotide]
RESULT_UNITS: %
cell viability: 114

COMPOUND: O=C1c2cccc3c2[C@H](CCC3)CN1[C@@H]1CN2CCC1CC2 [palonosetron]
RESULT_UNITS: %
cell viability: 105

COMPOUND: NCCNC(=O)c1ccc(Cl)cn1 [lazabemide]
RESULT_UNITS: %
cell viability: 98.1

COMPOUND: COC(=O)c1csc(C(=O)c2c[nH]c3ccccc23)n1 [ITE]
RESULT_UNITS: %
cell viability: 96.1

COMPOUND: COc1ccc(-c2cc(=O)c3c(O)c(OC)c(O)cc3o2)cc1OC [eupatilin]
RESULT_UNITS: %
cell viability: 98.3

query: Give the reported cell viability for this compound. COc1cc2nccc(Oc3ccc(NC(=O)C4(C(=O)Nc5ccc(F)cc5)CC4)cc3)c2cc1OC [cabozantinib]
result: 93

* * *

Consider the following compounds and their measured cell viability readings.
- System: HepG2
- TEST_PROTOCOL: cell viability relative to DMSO; higher = less toxic
- ASSAY_CONTEXT: 72 h; 1 nM
Give the value, in units of %, as a plain number.

COMPOUND: CCN(CC)CCOC(=O)C(c1ccccc1)c1ccccc1 [adiphenine]
RESULT_UNITS: %
ENDPOINT_RESULT: 103
//
COMPOUND: CC[C@]12CCCN3CCc4c(n(c5ccccc45)C(=O)C1)[C@@H]32 [vinburnine]
RESULT_UNITS: %
ENDPOINT_RESULT: 93.6
//
COMPOUND: C[C@H](CCC(=O)NCCS(=O)(=O)O)[C@H]1CC[C@H]2[C@@H]3[C@H](O)C[C@@H]4C[C@H](O)CC[C@]4(C)[C@H]3C[C@H](O)[C@]12C [taurocholate]
RESULT_UNITS: %
ENDPOINT_RESULT: 105

query: Note down cell viability recorded for CCc1nc(N)nc(N)c1-c1ccc(Cl)cc1 [pyrimethamine]
result: 108

* * *

- Test system: Caco-2
- TEST_PROTOCOL: cell viability relative to DMSO; higher = less toxic
- ASSAY_CONTEXT: 72 h; 1000 nM
READOUT_LABEL: cell viability (%)
Give just the numeric value; % need not be written.

# count of solved cases: 3
COMPOUND: COc1ccc2[nH]c(-c3ccccc3)c(CCNC(C)=O)c2c1
TARGET: Caco-2
cell viability, %: 98
--
COMPOUND: COc1ccc(-c2cc(=O)c3c(O)c(OC)c(O)cc3o2)cc1OC
TARGET: Caco-2
cell viability, %: 96.9
--
COMPOUND: Cc1ncc(CSSCc2cnc(C)c(O)c2CO)c(CO)c1O
TARGET: Caco-2
cell viability, %: 100

query: Enter cell viability (test system Caco-2) for Cc1cccc(C)c1NC1=NCCCS1
result: 104

query: Look up and report cell viability, with Caco-2 as system, for NCCS
result: 100

query: Using Caco-2 as the test system, report measured cell viability of O=C(c1cc(S(=O)(=O)Nc2ccccc2F)c(F)cc1Cl)N1CCN2CCC[C@@H]2C1 .
result: 94.9

query: // fetch cell viability; item: CN(C)CCCO[C@@H]1[C@H]2OC(C)(C)O[C@H]2O[C@@H]1[C@H](O)CO ; system: Caco-2
result: 95.1

query: Give cell viability; test system Caco-2; compound Nc1ncnc2c1ncn2[C@H]1CC[C@@H](CO)O1
result: 94.6

query: Provide cell viability, tested on Caco-2, for NC(=O)N1c2ccccc2CC(O)c2ccccc21 (stereo not given) [licarbazepine] .
result: 100

query: Under Caco-2: report cell viability of CCCCCOC(=O)Nc1nc(=O)n([C@@H]2O[C@H](C)[C@@H](O)[C@H]2O)cc1F .
result: 96.1

* * *

List of drug sensitivity score values.
- Test system: Calu-3
- TEST_PROTOCOL: drug sensitivity score (DSS) for viability; higher = more toxic; extreme values may be limits of the assay
- ASSAY_CONTEXT: 72 h
Respond numerically, and do not add a unit to the figure.

Worked examples follow.
COMPOUND: NCCS
READOUT_LABEL: drug sensitivity score
ENDPOINT_RESULT: 0
--
COMPOUND: CCCCC(CC)CCC(CC(C)C)OS(=O)(=O)O (configuration not stated) [sodium-tetradecyl-sulfate]
READOUT_LABEL: drug sensitivity score
ENDPOINT_RESULT: 0

Here is another compound to look at.
query: Using the record for N[C@@H](CCNCc1ccc(Cl)cc1)C(=O)N1CCCCC1 , state its measured drug sensitivity score.
result: 0

* * *

- System: HepG2
- TEST_PROTOCOL: cell viability relative to DMSO; higher = less toxic
- ASSAY_CONTEXT: 72 h; 1000 nM
This listing pairs molecules with measured cell viability.
Quick reminder: number only, in %, skip the unit.

MOLECULE: CC(C)NCCN(C(C)C)S(=O)(=O)c1ccc(Cl)cc1Cl
cell viability, %: 96.8

MOLECULE: Cc1ncc([N+](=O)[O-])n1CCO
cell viability, %: 99.8

MOLECULE: Cc1nc(N)sc1-c1ccnc(Nc2ccc(N3CCOCC3)cc2)n1
cell viability, %: 77.8

MOLECULE: Cc1ccc2c(-c3ccccc3)nc(=O)n(C(C)C)c2c1
cell viability, %: 102

MOLECULE: OCCN1C[C@H](O)[C@@H](O)[C@H](O)[C@H]1CO
cell viability, %: 103

MOLECULE: C[C@@H](O)[C@H]1C(=O)N2C(C(=O)[O-])=C(SC3Cn4cnc[n+]4C3)[C@H](C)[C@H]12 (stereo partly specified)
cell viability, %: 90.7

MOLECULE: C[N@+]1(CC2CC2)CC[C@]23c4c5ccc(O)c4O[C@H]2C(=O)CC[C@@]3(O)[C@H]1C5 [methylnaltrexone]
cell viability, %: 96.8

MOLECULE: C=C1CC[C@H](O)C/C1=C/C=C1\CCC[C@]2(C)[C@@H]([C@H](C)CCCC(C)C)CC[C@@H]12
cell viability, %: 93.4

query: Note down cell viability recorded for Cn1cc([S+](C)[O-])c(=O)c2ccc(F)cc21 (stereo unspecified)
result: 95.4

query: Return reported cell viability. Input molecule: Nc1cc(Cl)c(N=C2NCCN2)c(Cl)c1
result: 92.3

query: Name the recorded cell viability of the molecule listed here: CC1(C)CCC[C@]2(C)[C@H]3CC(=O)O[C@]3(C)CC[C@@H]12 [Sclareolide (Norambreinolide)]
result: 101

query: Input CCCOC(C(=O)OC1CCN(C)CC1)(c1ccccc1)c1ccccc1 , output reported cell viability.
result: 117

query: Give cell viability for the following molecule: NC(=O)N/N=C/c1ccc([N+](=O)[O-])o1
result: 108

query: Could you please provide reported cell viability for CC(=O)N[C@@H](Cc1ccc(O)cc1)C(=O)O ? Thanks!
result: 97.7

query: Give recorded cell viability. CCOC(=O)CCNc1cc(N2CCc3ccccc3CC2)nc(-c2ccccn2)n1
result: 104

query: Tell me cell viability reported for CCOC(=O)CCC(=O)O[C@H]1[C@H](O[C@@H]2[C@@H](C)[C@H](O[C@H]3C[C@@](C)(OC)[C@@H](O)[C@H](C)O3)[C@@H](C)C(=O)O[C@H](CC)[C@@](C)(O)[C@H](O)[C@@H](C)C(=O)[C@H](C)C[C@@]2(C)O)O[C@H](C)C[C@@H]1N(C)C [erythromycin-ethylsuccinate]
result: 87.5
